B1: Azoarcus group I ribozyme (parent)
chain: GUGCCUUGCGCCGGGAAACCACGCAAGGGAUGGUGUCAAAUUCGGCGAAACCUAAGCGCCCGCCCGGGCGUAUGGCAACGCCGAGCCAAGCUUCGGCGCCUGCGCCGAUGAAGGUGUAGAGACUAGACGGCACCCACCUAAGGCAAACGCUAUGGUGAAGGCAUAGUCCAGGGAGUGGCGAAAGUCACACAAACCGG

Variants of: B1
Assay: reverse-splicing fitness (ratio to wild type); higher = more active; in vitro selection; Mg2+ level not given
Give reverse-splicing fitness for every item shown.
Give the figure only, with no unit attached.

Noted for C82A A111U A120G A145C C150G C169U U176G : its reverse-splicing fitness reads 0.00584

Data point: C82G A111C A120C A145U C150G ; reverse-splicing fitness = 0.00916

Lab book: reverse-splicing fitness of C82G A111G A120G A145C C150G C169A U176C noted as 0.009
